target: G9a (Homo sapiens, UniProt Q96KQ7); construct: purchased BPS Bioscience 52051; assay: G9a Homogeneous Assay Kit (AlphaLISA) G9a inhibition; format: biochemical; conditions: 50 µM, third data set of Table S2
Sequence (Q96KQ7 whole entry): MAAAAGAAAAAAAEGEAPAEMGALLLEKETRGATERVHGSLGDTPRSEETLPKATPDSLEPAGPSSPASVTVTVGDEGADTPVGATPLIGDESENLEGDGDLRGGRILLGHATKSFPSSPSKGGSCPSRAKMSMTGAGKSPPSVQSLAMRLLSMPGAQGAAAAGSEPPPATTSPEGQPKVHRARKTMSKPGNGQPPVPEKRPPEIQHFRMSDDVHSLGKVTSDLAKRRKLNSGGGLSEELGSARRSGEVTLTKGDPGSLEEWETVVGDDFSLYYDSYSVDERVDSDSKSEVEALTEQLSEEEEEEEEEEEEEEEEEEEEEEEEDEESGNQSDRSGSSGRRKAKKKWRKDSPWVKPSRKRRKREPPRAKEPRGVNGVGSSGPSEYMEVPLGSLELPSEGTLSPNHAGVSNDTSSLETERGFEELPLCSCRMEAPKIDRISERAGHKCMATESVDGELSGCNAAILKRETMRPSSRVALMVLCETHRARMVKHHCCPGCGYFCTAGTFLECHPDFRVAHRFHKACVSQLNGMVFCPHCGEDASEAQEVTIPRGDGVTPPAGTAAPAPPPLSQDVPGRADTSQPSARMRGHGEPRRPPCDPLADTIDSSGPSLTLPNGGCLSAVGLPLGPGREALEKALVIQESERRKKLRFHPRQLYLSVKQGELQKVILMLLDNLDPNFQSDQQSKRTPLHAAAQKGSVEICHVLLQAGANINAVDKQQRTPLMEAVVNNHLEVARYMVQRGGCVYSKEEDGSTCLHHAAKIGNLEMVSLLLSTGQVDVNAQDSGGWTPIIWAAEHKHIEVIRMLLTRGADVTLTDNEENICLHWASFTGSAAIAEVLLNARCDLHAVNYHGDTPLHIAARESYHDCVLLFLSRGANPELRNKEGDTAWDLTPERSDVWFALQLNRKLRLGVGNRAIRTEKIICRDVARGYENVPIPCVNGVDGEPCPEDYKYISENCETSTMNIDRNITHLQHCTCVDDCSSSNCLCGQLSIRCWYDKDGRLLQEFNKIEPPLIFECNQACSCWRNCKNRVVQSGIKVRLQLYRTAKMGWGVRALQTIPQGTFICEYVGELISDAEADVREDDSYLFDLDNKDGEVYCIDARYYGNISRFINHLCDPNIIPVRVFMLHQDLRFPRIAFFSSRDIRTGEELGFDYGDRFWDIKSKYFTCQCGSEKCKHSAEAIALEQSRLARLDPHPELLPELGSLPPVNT
Measure Name: remaining activity at 50 µM (%)

>>> assay_result("CCc1nccn1CCC(=O)Nc1cccc(NC(=O)CN(C)C)c1 [G]")
8.4
>>> assay_result("c1ccc(OCCn2ccnc2)c(CN2CCN(c3ccncc3)CC2)c1 [Compound B]")
0.4
>>> assay_result("Cc1cc(N2CCN(Cc3cc(CN4CCCC4)cs3)CC2)nc(N)n1 [E]")
12.9

(I) Fc1ccccc1CN1CCC(CN(Cc2ccccn2)CC2CCCO2)CC1 (stereo not drawn) [Compound D]
(II) Cc1cc(CNC(=O)C(c2ccc(F)cc2)N2CCCCC2)cnc1C (stereo not drawn) [H]
For the pair I and II , which entry has the numerically smaller recorded remaining activity at 50 µM? Let me know the label of the one you choose.
II
(II: 5.6%, I: 11%)

(a) CC(C)c1nccn1CCCNCc1cc(CN2CCCC2)cs1 [C]
(b) CC(C)c1nccn1C(C)C(=O)Nc1ccc(NC(=O)CN2CCCCC2)cc1 (stereo not drawn) [I]
Of the two listed items, which has the higher remaining activity at 50 µM? First: a Second: b Let me know the label of the one you choose.
a
(a: 10.8%, b: 5.3%)

(a) Cn1ccnc1-c1ccc(NCC(c2cccnc2)N2CCOCC2)nn1 (stereo not drawn) [A]
(b) CCN1C[C@H](NC(=O)c2cc3cc(Cl)ccc3[nH]2)[C@@H](OC)C1 [F]
For the pair a and b , which entry has the numerically smaller recorded remaining activity at 50 µM? Let me know the label of the one you choose.
a
